Taken from PubChem BioAssay AID1996.

Item-by-item account of solubility kinetic
appliedConditions: buffer; pH 7.4; 200.0 µM

Examples with their reported solubility kinetic follow.
COc1ccc(/C=C/C(=O)NCCN2CCOCC2)cc1OC = > 48.1 µg/mL
N=C1SCC(=O)N1c1ccccc1Cl = > 34 µg/mL

Problem: What value of measured solubility kinetic is listed for CCOC(=O)C1=NNC2(CC(=O)N(c3cccc(C)c3)C2=O)C1 (stereo not drawn) ?
Result: > 47.3 µg/mL

###

appliedConditions: buffer; pH 7.4; 200.0 µM
Item-by-item account of solubility kinetic

Examples with their reported solubility kinetic follow.
O=C(COC(=O)C1(c2ccccc2F)CCCC1)N1CCNC1=O = > 50.2 µg/mL
COc1ccc(NS(=O)(=O)c2ccc3oc(=O)ccc3c2)cc1 = > 49.7 µg/mL
O=C(/C=C/c1cccc([N+](=O)[O-])c1)OCC(=O)c1ccccc1 = < 0.7 µg/mL
Cc1ccnc(SCc2ccc(C(=O)O)cc2)n1 = > 39 µg/mL
CN1CCN(Cc2ccc3ccccc3c2)CC1 = 20.6 µg/mL

Problem: What value of measured solubility kinetic is listed for CC(C)NC(=O)/C=C/C(=O)O ?
Result: 22.3 µg/mL

Problem: What value of measured solubility kinetic is listed for COc1cccc(C(O)Cc2nc3ccccc3n2C)c1OC (stereo not drawn) ?
Result: > 46.9 µg/mL

Problem: What value of measured solubility kinetic is listed for O=C(CN1CCN(Cc2ccccc2)CC1)NCCc1ccccc1 ?
Result: 47.3 µg/mL

###

appliedConditions: buffer; pH 7.4; 200.0 µM
reportedEndpoint: solubility kinetic

CC(Sc1nc2sccc2c(=O)n1-c1ccccc1)C(N)=O (configuration not stated) = 43.5 µg/mL
CC(=O)c1cc(C#N)c(N2CCN(c3ccccc3)CC2)nc1C = 0.2 µg/mL
CN(c1ccccc1)c1nc(N)c([N+](=O)[O-])c(N2CCCCC2)n1 = 13 µg/mL
O=C(COc1ccccc1[N+](=O)[O-])N1CCCc2ccccc21 = > 46.8 µg/mL

Problem: What value of measured solubility kinetic is listed for COc1ccc(NC(=O)c2cc(=O)[nH]c3ccccc23)cc1 ?
Result: 2.1 µg/mL

Problem: What value of measured solubility kinetic is listed for CCc1ccc(NC(=O)Nc2ccon2)cc1 ?
Result: > 34.7 µg/mL

###

appliedConditions: buffer; pH 7.4; 200.0 µM
Item-by-item account of solubility kinetic

O=C(NCC1CCCO1)c1cccnc1NCc1ccc(F)cc1 (stereo not given) = > 49.4 µg/mL

Problem: What value of measured solubility kinetic is listed for CCN(Cc1ccccc1)C(=O)CSc1nncn1C ?
Result: > 43.6 µg/mL

Problem: What value of measured solubility kinetic is listed for O=C(NCc1ccc(Cl)cc1)C1CCN(C(=O)c2ccco2)CC1 ?
Result: > 52 µg/mL

Problem: What value of measured solubility kinetic is listed for CN(Cc1cn(C)nc1-c1ccccc1F)Cc1nccn1C ?
Result: > 47 µg/mL

Problem: What value of measured solubility kinetic is listed for CCOc1ccc(C2C3=C(CCCC3=O)OC(N)=C2[N+](=O)[O-])cc1 (stereo not given) ?
Result: > 49.6 µg/mL

###

appliedConditions: buffer; pH 7.4; 200.0 µM
reportedEndpoint: solubility kinetic

Examples with their reported solubility kinetic follow.
COc1cccc2cc(C(=O)OCC(=O)N3CC(C)OC(C)C3)c(=O)oc12 (stereo not drawn) = > 56.3 µg/mL
Cc1cccc(C)c1NC(=O)CNC(=O)c1c(C)nn(C)c1Cl = > 50.2 µg/mL

With those in mind, consider the next molecule.
Problem: What value of measured solubility kinetic is listed for COc1ccc(/C=C(\C#N)C(=O)OC2CCOC2=O)cc1 (stereo not drawn) ?
Result: > 43.1 µg/mL
